The values you see were collected from patent US11155557B2.

- TARGET_SYSTEM: isolated recombinant JAK2 kinase domain (Homo sapiens (Human), UniProt O60674)
- Sequence (O60674 849-1124): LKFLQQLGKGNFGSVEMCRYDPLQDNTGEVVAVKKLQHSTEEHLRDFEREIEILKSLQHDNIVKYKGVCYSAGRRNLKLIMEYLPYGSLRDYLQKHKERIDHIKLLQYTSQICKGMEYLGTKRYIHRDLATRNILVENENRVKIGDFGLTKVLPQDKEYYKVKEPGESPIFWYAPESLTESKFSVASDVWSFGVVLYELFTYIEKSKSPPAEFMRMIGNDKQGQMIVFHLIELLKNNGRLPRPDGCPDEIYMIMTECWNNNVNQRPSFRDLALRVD
- ASSAY_METHOD_TEXT: JAK2 enzyme assay (Caliper LabChip, Ki)
- MEASUREMENT_PARAMETERS: read-out: JAK2 Ki
Below: a set of entries, each annotated with reported Ki.
Numbers only; they are read as nM.

Hi! What's the reported Ki for O=C1CSc2cc(-c3n[nH]cc3NC(=O)c3cnn4cccnc34)c(OC(F)F)cc2N1 [Example 14] on isolated recombinant JAK2 kinase domain (Homo sapiens (Human), UniProt O60674)? 0.04

Hi! What's the reported Ki for CC1Sc2cc(-c3n[nH]cc3NC(=O)c3cnn4cccnc34)c(OC(F)F)cc2NC1=O (single isomer, unassigned) [Example 95] on isolated recombinant JAK2 kinase domain (Homo sapiens (Human), UniProt O60674)? 0.03

Hi! What's the reported Ki for CCOC(=O)c1cc2cc(-c3n[nH]cc3NC(=O)c3cnn4cccnc34)c(OC)cc2s1 [Example 36] on isolated recombinant JAK2 kinase domain (Homo sapiens (Human), UniProt O60674)? 0.49

Hi! What's the reported Ki for CNCCn1cc(NC(=O)c2cnn3cccnc23)c(-c2cc3c(cc2OC(F)F)NCCS3)n1 [Example 81] on isolated recombinant JAK2 kinase domain (Homo sapiens (Human), UniProt O60674)? 0.11

Hi! What's the reported Ki for Cn1nnnc1Cn1cc(NC(=O)c2cnn3cccnc23)c(-c2cc3c(cc2OC(F)F)NCCS3)n1 [Example 127] on isolated recombinant JAK2 kinase domain (Homo sapiens (Human), UniProt O60674)? 0.06
